- PROTOCOL DETAILS: Cytotoxicity against human MT4 cells
- Format: cell-based
Examples of compounds with documented CC50 follow.
PROPERTY LABEL: CC50 (µM)

compound=CCCCCCCCCCCCCCCCOCCCOP(=O)(O)CO[C@@H](Cn1cnc2c(N)ncnc21)C(=O)OC readout_relation== observed=3.7
compound=CCOC(=O)[C@H](C)NC(=O)[C@H](Cn1cnc2c(N)ncnc21)OCP(=O)(N[C@@H](C)C(=O)OCC)N[C@@H](C)C(=O)OCC readout_relation=> observed=53.2
compound=Nc1ncnc2c1ncn2C[C@H](OCP(=O)(O)O)C(=O)O readout_relation=> observed=53.2
compound=CCOC(=O)[C@H](C)NP(=O)(CO[C@@H](Cn1cnc2c(N)ncnc21)C(=O)OC)N[C@@H](C)C(=O)OCC readout_relation== observed=40.5
compound="CCOC(=O)[C@H](Cc1ccccc1)NP(=O)(CO[C@@H](Cn1cnc2c(N)ncnc21)C(=O)OC)Oc1ccccc1 (stereo partly specified)" readout_relation== observed=1.4
compound=CCOC(=O)[C@H](Cc1ccccc1)NP(=O)(CO[C@@H](Cn1cnc2c(N)ncnc21)C(=O)OC)N[C@@H](Cc1ccccc1)C(=O)OCC readout_relation== observed=0.7

###

- Tested on: Hepatitis C virus
- PROTOCOL DETAILS: Antiviral activity against HCV genotype 1a replicon infected in human HuH7 cells after 3 days by renilla luciferase assay
- Format: functional, organism-based, Hepacivirus hominis
- TEST CONTEXT: subtype 1a, Huh-7, 72 h
Some molecules, each annotated with its measured EC50.
PROPERTY LABEL: EC50

chemical_smiles=CCOC(=O)[C@H](C)NP(=O)(CO[C@@H](Cn1cnc2c(N)ncnc21)C(=O)OC)N[C@@H](C)C(=O)OCC measured_target="Hepatitis C virus" property_label=EC50 observed="> 44.4 µM"
chemical_smiles=CCOC(=O)[C@H](C)NC(=O)[C@H](Cn1cnc2c(N)ncnc21)OCP(=O)(N[C@@H](C)C(=O)OCC)N[C@@H](C)C(=O)OCC measured_target="Hepatitis C virus" property_label=EC50 observed="> 44.4 µM"
chemical_smiles=Nc1ncnc2c1ncn2C[C@H](OCP(=O)(O)O)C(=O)O measured_target="Hepatitis C virus" property_label=EC50 observed="> 44.4 µM"
